- Assay target: human CD28 (human, UniProt P10747 19-220)
- Experimental protocol: cell-based or functional assay
Measured attribute: IL-2 (EC50 nM), DC-driven MLR

Binder	Measured attribute	Recorded result
1h-239-890 (other) VL: DIQMTQSPSSLSASVGDRVTITCRASRPIWPFLEWYQQKPGKAPKLLIYFTSRLARGVPSRFSGSGSGTDFTLTISSLQPEDFATYYCLQNVANPATFSQGTKVEIKR	IL-2 (EC50 nM), DC-driven MLR	0.1
1h-239-891 (other) VL: DIQMTQSPSSLSASVGDRVTITCRASRPIWPFLEWYQQKPGKAPKLLIYFTSRLRHGVPSRFSGSGSGTDFTLTISSLQPEDFATYYCLQNVANPATFSQGTKVEIKR	IL-2 (EC50 nM), DC-driven MLR	0.1
1h-239-896 (other) VL: DIQMTQSPSSLSASVGDRVTITCRASRPIWPFLEWYQQKPGKAPKLLIYFTSRLARGVPSRFSGSGSGTDFTLTISSLQPEDFATYYCLQNVQMPATFSQGTKVEIKR	IL-2 (EC50 nM), DC-driven MLR	0.3
1h-239-891(D70C) 40K branched PEG (other, 40 kDa branched PEG; engineered cysteine D70C) VL: DIQMTQSPSSLSASVGDRVTITCRASRPIWPFLEWYQQKPGKAPKLLIYFTSRLRHGVPSRFSGSGSGTCFTLTISSLQPEDFATYYCLQNVANPATFSQGTKVEIKR	IL-2 (EC50 nM), DC-driven MLR	1.5

(I) 1h-99-265 (other) VH: EVQLLESGGGLVQPGGSLRLSCAASGFTFDKSNMSWARQAPGKGLEWVSWIEASGVQTFYADSVKGRFTISRDNSKNTLYLQMNSLRAEDTAVYYCAKSPFGPLYGFDYRGQGTLVTVSS
(II) 1h-239-891(D70C) 30K linear PEG (other, 30 kDa linear PEG; engineered cysteine D70C) VL: DIQMTQSPSSLSASVGDRVTITCRASRPIWPFLEWYQQKPGKAPKLLIYFTSRLRHGVPSRFSGSGSGTCFTLTISSLQPEDFATYYCLQNVANPATFSQGTKVEIKR
Q: Smaller IL-2 (EC50 nM), DC-driven MLR value? Options are I and II Mark your answer with the label of the selected entry.
Result: II

This collection of values is drawn from patent US20130109846A1.
